Measured values drawn from ChEMBL document CHEMBL5608113 for this set.

- System: Colon cancer organoid
- Assay Overview: Targeting of F14 CAF-induced therapy resistance in O14 CRC organoid-stroma co-culture. Cell viability is reported without Gefitinib.
- Assay type: functional, Homo sapiens
- Conditions: Homo sapiens, Concentration 10 uM; read-out: Cell Viability
Measure: viability at 10 µM (%)

INSERT INTO assay_data (molecule, target_desc, measure, assay_value) VALUES
  ('CN(C)CC#Cc1ccc(OCCCc2sc(N3CCc4cccc(C(=O)Nc5nc6ccccc6s5)c4C3)nc2C(=O)O)c(F)c1', 'Colon cancer organoid', 'viability at 10 µM', 61.6),
  ('COc1cc(-c2cn(C)c(=O)c3cnccc23)c(OC)cc1CN(C)C', 'Colon cancer organoid', 'viability at 10 µM', 95.6),
  ('CC(C)(O)[C@H](F)CN1Cc2cc(NC(=O)c3cnn4cccnc34)c(N3CCOCC3)cc2C1=O', 'Colon cancer organoid', 'viability at 10 µM', 129),
  ('CCCCN(CCCC)C(=O)CN1C[C@@H](c2cc(OC)c3c(c2)OCO3)[C@H](C(=O)O)[C@H]1CC(C)(C)CCC', 'Colon cancer organoid', 'viability at 10 µM', 83.6);

----------
Reported viability at 10 µM by item:
- Tested on: Colon cancer organoid
- Assay Overview: Targeting of F14 CAF-induced therapy resistance in O23 CRC organoid-stroma co-culture. Cell viability is reported with SN-38.
- Type: functional, Homo sapiens
- Conditions: Homo sapiens, Concentration 10 uM; read-out: Cell Viability
Measure: viability at 10 µM (%)

INSERT INTO results (molecule, value_units, assay_value) VALUES
  ('Cc1cc(-n2nc(Cc3cc(F)cc(C(F)(F)F)c3)nc2C)ccc1C(N)=O', '%', 81),
  ('Cc1c(N2CCCC2)nc2ccc(Br)cc2c1C(=O)NC[C@H](CCC(=O)O)c1ccccc1Cl', '%', 58.4),
  ('CN1CCN(c2cnc3c(C4CCN(C(=O)c5ccc(OC(F)(F)F)cc5N)CC4)ncnc3c2)CC1', '%', 78),
  ('Cc1ccc2[nH]c(CNCCCc3ccncc3)cc(=O)c2c1 [UCSF924NC]', '%', 52.3),
  ('COc1ccc2c(c1)O[C@H](c1ccc(OC)c(OC)c1)C[C@@H]2NC(=O)C1(c2ccc3c(c2)OC(F)(F)O3)CC1', '%', 59.1),
  ('Cc1cc(C)cc([C@H]2c3cc(C)ccc3NC(=O)CN2C(=O)c2ccc(Br)s2)c1', '%', 86.1),
  ('COc1cc(C(=O)O)ncc1C#Cc1ccccc1NS(=O)(=O)c1cccc2c(N(C)C)ccnc12', '%', 79.4),
  ('CNC(=O)c1cc(C(=O)N[C@H]2[C@@H]3COC[C@@H]32)cc2c1O[C@@H](CF)[C@@H]2c1ccccc1', '%', 64.3),
  ('O=C(O)c1ccc(-c2coc3ncc(-c4ccccc4)cc23)cc1Cl', '%', 103),
  ('C[C@H](NC(=O)c1cnc2n1[C@](C)(Cc1ccc(C#N)cc1)C(=O)N2c1cc(Cl)c(F)c(Cl)c1)C(=O)NC1(c2ccccn2)CC1', '%', 85.8),
  ('CC1(C)C(N)=Nc2cc(OCCCCN3Cc4ccc(OCc5cn(CC(=O)N6CCC(CCN7CCCC7)CC6)nn5)cc4C3)c(OCC3CC3)cc21', '%', 78.3),
  ('CCC(=O)N[C@H]1CC[C@@H](C(=O)N(C)c2ccc(-c3nc4ccccc4o3)cc2)C1', '%', 124),
  ('Cc1cc(C)cc([C@@H]2c3cc(C)ccc3NC(=O)CN2C(=O)c2ccc(Br)s2)c1', '%', 82.1);
